Reported endpoint: melting point

CSc1nccc(Nc2cc(-c3cccc(NC(=O)c4ccc(C(C)(C)C)cc4)c3C)nn(C)c2=O)n1 224 to 225 °C
Cc1c(NC(=O)c2ccc(C(C)(C)C)cc2)cccc1-c1cc(Nc2ccc(C(=O)N3CCOCC3)cc2)c(=O)n(C)n1 157 to 158 °C
COc1cc(C(C)(C)C)ccc1C(=O)Nc1cccc(-c2cc(Nc3ccc(C(=O)N4CCOCC4)cn3)c(=O)n(C)n2)c1C 156.5 to 157 °C

--- query ---
The recorded melting point for `Cc1c(NC(=O)c2ccc(C(C)(C)C)cc2)cccc1-c1cc(Nc2ccc(C(=O)N3CCOCC3)cn2)c(=O)n(C)n1` is 148 to 150 °C

###

Target: Btk enzyme (His-tagged, full-length) (Homo sapiens)
Construct: 5-10 nM Btk enzyme (His-tagged, full-length); His
Sequence (Q06187 whole entry): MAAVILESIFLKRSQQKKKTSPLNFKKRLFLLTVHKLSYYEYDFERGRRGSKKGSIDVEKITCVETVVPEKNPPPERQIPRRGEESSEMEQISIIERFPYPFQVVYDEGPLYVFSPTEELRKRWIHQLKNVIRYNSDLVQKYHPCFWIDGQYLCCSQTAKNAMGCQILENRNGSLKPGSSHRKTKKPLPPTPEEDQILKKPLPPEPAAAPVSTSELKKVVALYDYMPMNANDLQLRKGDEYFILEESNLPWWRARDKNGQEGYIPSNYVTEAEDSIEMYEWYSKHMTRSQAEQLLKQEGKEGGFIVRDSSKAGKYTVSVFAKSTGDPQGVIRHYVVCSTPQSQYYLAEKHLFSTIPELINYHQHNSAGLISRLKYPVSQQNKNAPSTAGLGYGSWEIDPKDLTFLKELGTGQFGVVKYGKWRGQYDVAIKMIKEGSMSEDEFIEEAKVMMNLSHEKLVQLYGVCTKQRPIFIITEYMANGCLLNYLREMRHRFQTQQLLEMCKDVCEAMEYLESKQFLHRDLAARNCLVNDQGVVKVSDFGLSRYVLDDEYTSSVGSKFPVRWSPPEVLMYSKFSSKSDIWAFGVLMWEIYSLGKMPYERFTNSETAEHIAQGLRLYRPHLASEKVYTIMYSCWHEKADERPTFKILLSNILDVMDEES
Assay: Bruton's Tyrosine Kinase (Btk) Inhibition Assay (33P filtration capture)
Assay type: biochemical
Conditions: Bruton's tyrosine kinase Assay (Example 34); Table II pyridinones; 100 μM ATP
Protocol: Bruton's Tyrosine Kinase (Btk) Inhibition Assay The assay is a capture of radioactive ^33P phosphorylated product through filtration. […] All bound, radiolabeled products are detected by scintillation counter. […] IC50 determinations are calculated from 10 data points per compound utilizing data produced from a standard 96-well plate assay template. […] Background was counted in the absence of peptide substrate. Total activity was determined in the presence of peptide substrate. […]
IC50 vs 50 nM: less than gives MET; not less than gives NOT MET.

Solved cases below.
Compound	Discrete label
CCOc1cccc(Nc2cc(-c3cccc(NC(=O)c4ccc(C5CC5)cc4)c3CO)cn(C)c2=O)n1 [II-90]	NOT MET
CNC(=O)Nc1cc(-c2cccc(NC(=O)c3ccc(C(C)(C)C)cc3)c2)cn(C)c1=O [II-27]	NOT MET
Cn1cc(-c2cccc(NC(=O)c3ccc(S(F)(F)(F)(F)F)cc3)c2CO)cc(Nc2ccc(C(=O)N3CCOCC3)cn2)c1=O [II-89]	MET
CN(C)c1ccc(C(=O)Nc2cccc(-c3cc(Nc4ccc(C(=O)N5CCC(N(C)C)CC5)cn4)c(=O)n(C)c3)c2CO)cc1 [II-60]	MET
CNC(=O)Nc1cc(-c2cccc(NC(=O)c3ccc4c(ccn4C)c3)c2C)cn(C)c1=O [II-23]	NOT MET
Cc1ccc(Nc2cc(-c3cccc(NC(=O)c4ccc(C5CC5)cc4)c3CO)cn(C)c2=O)nn1 [II-94]	MET
Cn1cc(-c2cccc(NC(=O)c3ccc(C4CC4)cc3)c2CO)cc(Nc2ccc(C(=O)N3CCCC3)cn2)c1=O [II-99]	MET
Cn1cc(-c2cccc(NC(=O)c3ccc(C4CC4)cc3)c2CO)cc(Nc2ccc(C(=O)N3CCC3)cn2)c1=O [II-101]	MET

Input: Hello, is IC50 of the following compound strictly smaller than 50 nM? CNC(=O)Nc1cc(-c2cccc(NC(=O)c3ccc(N(C)C)cc3)c2C)cn(C)c1=O [II-13]
Output: NOT MET

###

Reported endpoint: melting point

COc1cc(C(C)(C)C)ccc1C(=O)Nc1cccc(-c2cc(Nc3ccc(C(=O)N4CCOCC4)cn3)c(=O)n(C)n2)c1 216 to 217 °C
CNC(=O)Nc1cc(-c2cccc(NC(=O)c3cc4ccccc4s3)c2C)cn(C)c1=O 286 to 287 °C
Cc1c(NC(=O)c2ccc(C(C)(C)C)cc2)cccc1-c1cc(NC(=O)NC(C)C)c(=O)n(C)c1 185 to 186 °C
CNC(=O)Nc1cc(-c2cccc(NC(=O)c3ccc(C(C)(C)C)cc3)c2C)cn(C)c1=O 262 to 264 °C
COc1nccc(Nc2cc(-c3cccc(NC(=O)c4ccc(C(C)(C)C)cc4)c3C)nn(C)c2=O)n1 262 to 264 °C
Cn1nc(-c2cccc(CC(=O)N3CCC(C(C)(C)C)CC3)c2)cc(Nc2ccc(C(=O)N3CCOCC3)cn2)c1=O 231 to 232 °C

The recorded melting point for `CNC(=O)Nc1cc(-c2cccc(NC(=O)c3cc4c(s3)CCCC4)c2C)cn(C)c1=O` is 254 to 255 °C

The recorded melting point for `Cc1c(NC(=O)c2ccc(C(C)(C)O)cc2)cccc1-c1cc(Nc2ccc(C(=O)N3CCN(C)CC3)cn2)c(=O)n(C)n1` is 167.5 to 168.5 °C

The recorded melting point for `CCN(CC)Cc1ccc(Nc2cc(-c3cccc(NC(=O)c4ccc(C5(F)CC5)cc4)c3CO)cn(C)c2=O)nc1` is 203 to 204 °C

The recorded melting point for `CNC(=O)Nc1cc(-c2cccc(NC(=O)c3ccc(C(C)(C)C)cc3)c2C)nn(C)c1=O` is 287 to 288 °C

The recorded melting point for `Cc1c(NC(=O)N2CCN(C(C)(C)C)CC2)cccc1-c1cc(Nc2ccc(C(=O)N3CCOCC3)cn2)c(=O)n(C)n1` is 166 to 169 °C

The recorded melting point for `CNC(=O)Nc1cc(-c2cccc(CC(=O)N3CC(OC(C)(C)C)C3)c2)cn(C)c1=O` is 125 to 126 °C

The recorded melting point for `Cc1c(NC(=O)c2ccc(C(C)(C)C)cc2)cccc1-c1cc(NC(=O)NCCN(C)C)c(=O)n(C)c1` is 164 to 165 °C

The recorded melting point for `Cc1c(NC(=O)c2ccc(C(C)(C)C)cc2)cccc1-c1cc(Nc2ccncn2)c(=O)n(C)n1` is 249 to 250 °C

The recorded melting point for `Cc1c(NC(=O)c2ccc(C(C)(C)C)cc2)cccc1-c1cc(NC(=O)NCc2ccccc2)c(=O)n(C)c1` is 169 to 170 °C

The recorded melting point for `CC(C)OC1CN(C(=O)Cc2cccc(-c3cc(Nc4ccc(C(=O)N5CCOCC5)cn4)c(=O)n(C)n3)c2)C1` is 92 to 93 °C

The recorded melting point for `Cc1c(NC(=O)c2ccc(C(C)(C)C)cc2)cccc1-c1cc(NC(=O)NCCCN(C)C)c(=O)n(C)c1` is 194 to 195 °C

The recorded melting point for `Cn1nc(-c2cccc(CC(=O)N3CCCC3)c2)cc(Nc2ccc(C(=O)N3CCOCC3)cn2)c1=O` is 117 to 118 °C

The recorded melting point for `Cn1nc(-c2cccc(CC(=O)NCCC(C)(C)C)c2)cc(Nc2ccc(C(=O)N3CCOCC3)cn2)c1=O` is 138 to 139 °C

The recorded melting point for `Cn1nc(-c2cccc(NC(=O)c3ccc(C(C)(C)O)cc3)c2)cc(Nc2ccc(C(=O)N3CCOCC3)cn2)c1=O` is 172 to 173 °C

The recorded melting point for `CNC(=O)Nc1cc(-c2cccc(CC(=O)N3CC(OC(C)C)C3)c2)cn(C)c1=O` is 118 to 119 °C

The recorded melting point for `Cc1c(NC(=O)c2ccc(C(C)(C)C)cc2)cccc1-c1cc(Nc2ccnc(OCCN(C)C)n2)c(=O)n(C)n1` is 188 to 189 °C

The recorded melting point for `CNC(=O)Nc1cc(-c2cccc(NC(=O)c3ccc(N(C)C)cc3)c2C)cn(C)c1=O` is 291 to 292 °C

The recorded melting point for `Cc1c(NC(=O)c2ccc(C(C)(C)C)cc2)cccc1-c1cc(Nc2ccnc(N3CCOCC3)n2)c(=O)n(C)n1` is 211 to 213 °C

The recorded melting point for `Cc1c(-c2cc(Nc3ccc(C(=O)N4CCOCC4)cn3)c(=O)n(C)n2)cccc1-n1cnc2cc(C(C)(C)C)ccc2c1=O` is 188.5 to 191 °C

The recorded melting point for `Cc1c(NC(=O)c2ccc(C(C)(C)C)cc2)cccc1-c1cc(Nc2ccnc(N3CCCC3)n2)c(=O)n(C)n1` is 193 to 195 °C

###

target: Btk enzyme (His-tagged, full-length) (Homo sapiens); construct: 5-10 nM Btk enzyme (His-tagged, full-length); His; test: Bruton's Tyrosine Kinase (Btk) Inhibition Assay (33P filtration capture); format: biochemical; conditions: Bruton's tyrosine kinase Assay (Example 34); Table I pyridazinones; 100 μM ATP
Reported endpoint: IC50 (µM)
A number alone suffices; assume µM.

Molecule	Measurement target	Reported endpoint	Measured number
Cc1c(NC(=O)N2CCN(C(C)(C)C)CC2)cccc1-c1cc(Nc2ccc(C(=O)N3CCOCC3)cn2)c(=O)n(C)n1 [Compound I-6]	Btk enzyme (His-tagged, full-length) (Homo sapiens)	IC50	15.5

The recorded IC50 for Cn1nc(-c2cccc(CC(=O)N3CCC(C(C)(C)C)CC3)c2)cc(Nc2ccc(C(=O)N3CCOCC3)cn2)c1=O [Compound I-42] is 2.35

The recorded IC50 for Cn1nc(-c2cccc(NC(=O)c3ccc(C(C)(C)O)cc3)c2)cc(Nc2ccc(C(=O)N3CCOCC3)cn2)c1=O [Compound I-16] is 0.12
